assay: IV and PO pharmacokinetic studies of prodrug salts (Iab, Ibb, Icb) in the rat, with historical parent data; type: in vivo, Sprague-Dawley rats; settings: male, Sprague-Dawley, plasma, oral, […], read-out: Bioavailability
EXPERIMENTAL_ENDPOINT: bioavailability (%)
Field: numeric (%). Do not append units.

Consider the compound COc1cnc(-n2cnc(C)n2)c2[nH]cc(C(=O)C(=O)N3CCN(C(=O)c4ccccc4)CC3)c12 and give its measured bioavailability.
80

---

assay: Single-dose toxicokinetic and tolerability study of prodrugs in dogs; type: in vivo, dog; conditions: male, dog, plasma, po, 125 mg/kg, dog 4101M, day 8, Icb 125 mg/kg BID dry-filled capsules; emesis
EXPERIMENTAL_ENDPOINT: AUC(0-inf) (µM·h)
Number only, in µM·h; omit the unit.

Query: AUC(0-inf); subject: COc1cnc(-n2cnc(C)n2)c2[nH]cc(C(=O)C(=O)N3CCN(C(=O)c4ccccc4)CC3)c12
3780

---

Assay: IV and PO pharmacokinetic studies of prodrug salts (Iab, Ibb, Icb) in the dog, with historical parent data
Type: in vivo, beagle dogs
Conditions: plasma, historical parent, IV 1 mg/kg, read-out: MRT (hr), IV
Method: The IV and PO studies of Iab were conducted in a crossover fashion in three male beagle dogs (11±1.1 kg, Marshall Farms USA Inc., North Rose, N.Y.). There was a two-week washout period between the IV and PO studies. In the IV study, Iab was infused via the cephalic vein at 1.2 mg/kg (free acid, or 0.95 mg/kg of IVa equivalent) over 5 min at a constant rate of 0.1 mL/kg/min. The concentration of the dosing solution was 2.4 mg/mL, and the dosing volume was 0.5 mL/kg. […]
EXPERIMENTAL_ENDPOINT: MRT (h)
# number only, unit h dropped from output

Please give the measured MRT for this molecule: COc1ncc(OC)c2c(C(=O)C(=O)N3CCN(C(=O)c4ccccc4)CC3)c[nH]c12
3.3

---

test: physchem; settings: aqueous solution (pH range 1.5 to 8.7), aqueous buffer, thermodynamic from solid
EXPERIMENTAL_ENDPOINT: solubility

Dear colleague, I am looking for the recorded solubility of the following molecule: O=C(C(=O)N1CCN(C(=O)c2ccccc2)CC1)c1cn(COP(=O)(O)O)c2c(-n3ccnn3)ncc(F)c12
> 11 mg/mL

---

experiment: IV and PO pharmacokinetic studies of prodrug salts (Iab, Ibb, Icb) in the dog, with historical parent data; type: in vivo, beagle dogs; settings: male, beagle, plasma, 6.6 mg/kg, parent after oral prodrug, read-out: t1/2 (hr), PO (converted)
EXPERIMENTAL_ENDPOINT: half-life (h)
Number only, in h; omit the unit.

# query: half-life of entry COc1ncc(OC)c2c(C(=O)C(=O)N3CCN(C(=O)c4ccccc4)CC3)c[nH]c12 [IVa]
4.1

---

assay: IV and PO pharmacokinetic studies of prodrug salts (Iab, Ibb, Icb) in the monkey, with historical parent data; type: in vivo, cynomolgus monkeys; settings: male, cynomolgus monkey, plasma, po, […]; read-out: T1/2 (converted)
EXPERIMENTAL_ENDPOINT: half-life (h)
A number alone suffices; assume h.

Which half-life is listed for O=C(C(=O)N1CCN(C(=O)c2ccccc2)CC1)c1c[nH]c2c(-n3ccnn3)ncc(F)c12 ?
4.1

---

assay: IV and PO pharmacokinetic studies of prodrug salts (Iab, Ibb, Icb) in the monkey, with historical parent data; type: in vivo, cynomolgus monkeys; conditions: male, cynomolgus monkey, plasma; monkey, after IV prodrug (~1.1 mg/kg parent equivalent); analyte = label; read-out: AUCtot (μM · hr), IV
# AUC listing for each entry below
Return type: number; implicit unit µM·h.

CHEM_SMILES | UNIT_ANNOTATION | AUC
COc1ncc(OC)c2c(C(=O)C(=O)N3CCN(C(=O)c4ccccc4)CC3)c[nH]c12 | µM·h | 7.1

Consider the record given below.
Give the measured AUC of COc1cnc(OC)c2c1c(C(=O)C(=O)N1CCN(C(=O)c3ccccc3)CC1)cn2COP(=O)(O)O .
9.5

All values here come from patent US20150315218A1.
